- System: T47D
- methodSummary: NCI tumour cell line growth inhibition, 48 h
Active and inactive are the calls of the source. Cut-off read from the data, not from the text of the source: active = GI50 up to about 1.1 µM and inactive = higher.
Parameter call: string, one of active, inactive

Could you please tell me the result logged for C=C(C)COC(=O)COCC(=O)OCC(=C)C in this assay?
inactive

Could you please tell me the result logged for S=C(Nc1ccc2c(c1)Cc1ccccc1-2)Nc1ccc2c(c1)Cc1ccccc1-2 in this assay?
inactive

Could you please tell me the result logged for Cc1cc2[nH]c3[nH]c(=O)[nH]c(=O)c3c2cc1C in this assay?
inactive

Could you please tell me the result logged for O=C1CC(NCc2ccccc2)c2c(Cl)sc(Cl)c21 (configuration not stated) in this assay?
inactive

Could you please tell me the result logged for Oc1ccc(/C=C\c2nnc(/C=C\c3ccc(O)c(O)c3)s2)cc1O in this assay?
inactive

Could you please tell me the result logged for COc1cccc(C2CC(C)(O)Oc3cc4c(cc32)OCO4)c1O (configuration not stated) in this assay?
inactive

Could you please tell me the result logged for O=C(Oc1ccccn1)c1cc2cc(CCl)ccc2oc1=O in this assay?
inactive

Could you please tell me the result logged for Cc1nc(C(N)=S)sc1C(=O)CC(=O)C(=O)Nc1nc2ccccc2[nH]1 in this assay?
inactive

Could you please tell me the result logged for CN(Cc1c[n+]([O-])c2nc(N)nc(N)c2n1)c1ccc(C(=O)NC23CC4CC(CC(C4)C2)C3)cc1 in this assay?
inactive

Could you please tell me the result logged for COc1cc(C2c3cc4c(cc3OC3(OC)COC(=O)C23)OCO4)cc(OC)c1OC (configuration not stated) in this assay?
inactive

Could you please tell me the result logged for CCOP(C)(=O)C(N)Cc1ccc(OC)c(OC)c1 (configuration not stated) in this assay?
inactive

Could you please tell me the result logged for COC[C@H]1OC(=O)c2coc3c2[C@@]1(C)C1=C(C3=O)[C@@H]2CCC(=O)[C@@]2(C)C[C@H]1OC(C)=O in this assay?
active

Could you please tell me the result logged for CCCC/C=C1/CCC(CN(C)C)C1=O (configuration not stated) in this assay?
inactive

Could you please tell me the result logged for CNc1cccnc1/C=N/N=C(/N)S in this assay?
inactive

Could you please tell me the result logged for CCOC(=O)C1C(=O)CC(O)(OCC)C(C(=O)OCC)C1c1ccc(OC)cc1 (configuration not stated) in this assay?
inactive

Could you please tell me the result logged for Cc1ccc(S(=O)(=O)N2CC2CCCCC=O)cc1 (configuration not stated) in this assay?
inactive

Could you please tell me the result logged for CCOC(=O)c1c(-c2ccc(Cl)cc2)c(C#N)c(=S)n(C2OC(COC(C)=O)C(OC(C)=O)C(OC(C)=O)C2OC(C)=O)c1C (configuration not stated) in this assay?
inactive

Could you please tell me the result logged for CC(C)(C)c1ccc(-c2nc3ccccc3c(=O)o2)cc1 in this assay?
inactive

Could you please tell me the result logged for CN(C)Cc1ccc(O)c(CN(C)C)n1 in this assay?
inactive

Could you please tell me the result logged for C/C(O)=C/C(=O)c1[nH]c(C(=O)O)cc1C1CCN(Cc2ccccc2)C1=O (configuration not stated) in this assay?
inactive

Could you please tell me the result logged for COC(=O)C(CCSC)NC(=O)Cc1ccc(C(=O)c2ccccc2)cc1 (configuration not stated) in this assay?
inactive

Could you please tell me the result logged for COC(=O)c1c(O)ccc2c1c1cc3ccccc3c(O)c1n2Cc1ccccc1Cl in this assay?
inactive
